- assay: amyloid nucleation score (Sup35N fusion, yeast selection) (log enrichment); library NNK1; higher = more nucleation; inactive = no reads after selection;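 further: zero at mode of non-aggregating sequences after 7 days selection at 30°C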
Classify on amyloid nucleation score using class 1 = under -0.07, class 2 = from -0.07 up to 1, class 3 = 1 and over

Some solved entries appear below for comparison.
1) KREKEYFNERLPTDLSLQRC class 1
2) QAVRDVRLCN class 1
3) LQKRANNRRC class 1
4) CCQRYCCTSGLANNWNRVYH class 2
5) CGRKGEHIFYTTDNEYLNYV class 2
6) KLGTPLRQSDVS class 1

q: Input CMSLFRYENVQYLFTRIHSI ; output its category
a: class 3

###

- assay: amyloid nucleation score (Sup35N fusion, yeast selection) (log enrichment); library NNK3; higher = more nucleation; inactive = no reads after selection
property_name: amyloid nucleation score

See these solved cases before continuing.
1. HYCRNTGC inactive
2. SFFTGKAKGFYRQALRTYYR -0.093
3. SETKVIGQLRKTSNSEAHNA 0.422
4. LRPYHSRVWCVRLQSYSMVR inactive
5. NHRYMMVTATRIKWDGVSWN inactive

Value of amyloid nucleation score reported for the substance WPANGMSRLVNRL is inactive

Lab note: measured amyloid nucleation score of NREQLSSNKRNFASHRWTSV was inactive

amyloid nucleation score in this record for SNVVSTS : inactive

Input CRCHRLVNIPSMFWCLKFVG . Output amyloid nucleation score: inactive

The reported amyloid nucleation score of the substance ALNLVLLLCVTRRSRLSQSS was inactive

response.value for LKCDWC (field: amyloid nucleation score) = inactive

The recorded amyloid nucleation score for entry RKHLDLT equals inactive

Measured amyloid nucleation score of SKWAYIAFGVFVLLFALFNK : -0.161

###

- assay: amyloid nucleation score (Sup35N fusion, yeast selection) (log enrichment); library NNK1; higher = more nucleation; inactive = no reads after selection
property_name: amyloid nucleation score

1) YNVCGELQDNIRCYISLTVL inactive
2) CEWVWRGSVCSIWLLVLLPV 0.09
3) VCQLVILGFFLRIVTMCWLW inactive
4) LEYENCHCIILYLKHAQYLL inactive

###

- assay: amyloid nucleation score (Sup35N fusion, yeast selection) (log enrichment); library NNK2; higher = more nucleation; inactive = no reads after selection
Recorded amyloid nucleation score values for a group of sequences are listed next.
Format: numeric value only, no unit, no commentary.

1) TSGLMMSVCKFDLWQNVND 3.81

// amyloid nucleation score value for EWILTELYHWFNFFYCRDGV : -1.2

For record LYMAFREMQSWQHCW the listed amyloid nucleation score is -0.227

###

- assay: amyloid nucleation score (Sup35N fusion, yeast selection) (log enrichment); library NNK3; higher = more nucleation; inactive = no reads after selection
property_name: amyloid nucleation score

1. INVVSEFGFGLQSTFRSDLV inactive
2. LPHVAVEAVTLAMWVE inactive
3. IMSRMYDDSFADLVCKHAVD inactive
4. CFMSNIDIFLDRCMRKGCNH 2.08
5. IQFPDQ inactive
6. MYLPWISSSGVLNRTSMSFY 0.668
7. RSWSETC inactive
8. AVLSLCINGIVALKGDSGCC 0.478
9. MSSPAPFWSVNSVLAIKNLF inactive
10. WLHRTKLWPYFYVKLFPRDK inactive

Note to self: amyloid nucleation score recorded for RGWYINTVGYRTRAGHNLCG was inactive

amyloid nucleation score recorded for this substance, TLYRGDKTRNFAMGIKLCMT , is inactive

Sample GDFLNCAFLTKIFEHQNNFW ; amyloid nucleation score observed: 1.85

###

- assay: amyloid nucleation score (Sup35N fusion, yeast selection) (log enrichment); library NNK1; higher = more nucleation; inactive = no reads after selection
Could you label it y if measured amyloid nucleation score is 1 or higher, and n otherwise?

1) IIFGCCVF y
2) NNRNQAMKVYNLVSLIEAKR n
3) LRCSLDGFFGLDWLANLILD n
4) VRCNGDLQDKYRISFCNKSR n
5) DKTECDQCIKSG n
6) CYSWHGVYRGYVYSSYNNYV n
7) VTNPNYP n
8) LNSIMQIQVWIFTLEMMSPM n

q: Check the entry TGQACAWGGSVILTVSCDRY : does amyloid nucleation score equal or exceed 1?
a: y

q: Confirm if amyloid nucleation score reported for the substance VWVLPRDNVFSIKNYMSFS is 1 or above.
a: y

q: Decide: is the reported value of amyloid nucleation score for RAIMRKIYYHVMMIWI equal to or greater than 1?
a: n

q: Is reported amyloid nucleation score greater than or equal to 1 here: ERFLFGSMSTYANGRCVGAY
a: n

q: Has RFIIFNHDLGLRD a recorded amyloid nucleation score greater than or equal to 1?
a: n

q: Hi team, for MSAGIVFIKQFVCS , is the recorded amyloid nucleation score at or above 1?
a: y

q: Evaluate MWAIFSLWVCSR : amyloid nucleation score at minimum 1?
a: y

q: Entry SSTGAVLIHNCTTRSVDLSG : is its amyloid nucleation score no less than 1?
a: n

q: # check: amyloid nucleation score of ANMCISGAYNCVSVLCLRNR is greater than or equal to 1
a: y

###

- assay: amyloid nucleation score (Sup35N fusion, yeast selection) (log enrichment); library NNK3; higher = more nucleation; inactive = no reads after selection
property_name: amyloid nucleation score

1) TPRQFSDGCISFNKVTINPQ 0.704
2) WIVVENW inactive
3) TADIESMIMFNGRVPGHLSV inactive
4) SKTMALMYLSFQPHYLYTLC inactive
5) RRMRFCKTSYEYLCNYAAPK inactive
6) CPYALMWSLSYSWSFPYRMS 0.286

get_value(item= GFMHTVRCIRIEPPQCRAVV , readout=amyloid nucleation score) returns inactive

For record RKGTWPHLGTVNRRVQRWVY the listed amyloid nucleation score is inactive

For this substance ( THANEGRCYMVSSVMEVSPL ), measured amyloid nucleation score is inactive

###

- assay: amyloid nucleation score (Sup35N fusion, yeast selection) (log enrichment); library NNK3; higher = more nucleation; inactive = no reads after selection
property_name: amyloid nucleation score

1. NISSTSFRMGNIIGNEFLVY inactive
2. AEMDRRATFTGDHGDGFAIV inactive
3. LFTELGSILF inactive
4. MNWFELFAHCLLKQFQRTLQ inactive

Documented amyloid nucleation score of LVSKAGLSLRLKG : inactive

The recorded amyloid nucleation score for FKAMTFAYGYLTVGLSVVGV is inactive

The reported amyloid nucleation score of the sequence TGDRIWTIGFFGEPNGVLKG was inactive

Value of measured amyloid nucleation score for the entry AMVRNVYSCLRNRTCFLSSL : inactive

Value of amyloid nucleation score reported for the sequence PIMAWIWWRASDPMQKRLVG is inactive

// field: amyloid nucleation score; key: ICRLGLLFIMTLRYYNVFVR ; value = inactive

###

- assay: amyloid nucleation score (Sup35N fusion, yeast selection) (log enrichment); library NNK2; higher = more nucleation; inactive = no reads after selection
property_name: amyloid nucleation score
Number only, please.

1. IVNTELVLVDKLDSCIVRYN 3.02
2. DCQVSTLAYWSRVKMFQYQK 3.71
3. KTIQVGQVA 1.24
4. NTKYRRFFFNTVRLLHM -0.28
5. YSSSSSTYNAWFSMPESHEL 0.264

Lab note: YNQSMYFRVLGFYTYPSDRG gave amyloid nucleation score of 2.32

###

- assay: amyloid nucleation score (Sup35N fusion, yeast selection) (log enrichment); library NNK3; higher = more nucleation; inactive = no reads after selection
property_name: amyloid nucleation score

1) TLARQWSDP inactive
2) MYGPMVWVDLYTCKTHRGAS inactive
3) LLVANG inactive
4) NNPLLIRDLHLTKVDISAVC inactive
5) IMYTRAYLFYTRDHCLFIRV inactive

The reported value for GFFTYTTRSGDSSYGVEASA in terms of amyloid nucleation score is -0.289

Just so you know, measured amyloid nucleation score for FGWAWPFFTKVHHTSTV came out at inactive

Short answer for VTSYYSHISYVTL : amyloid nucleation score was inactive

Reported amyloid nucleation score of WSVITT : inactive

The reported value for IRSVKISSGYLLISYGDNNW in terms of amyloid nucleation score is 0.687

amyloid nucleation score in this record for FRYAMSYVGGMGSSINALIW : inactive

Measured amyloid nucleation score, RRCMFIFSYWPRRVLATVLK : inactive

###

- assay: amyloid nucleation score (Sup35N fusion, yeast selection) (log enrichment); library NNK3; higher = more nucleation; inactive = no reads after selection
property_name: amyloid nucleation score

Solved entries:
1. TSSQKDIWQDVYGLLFWAQS inactive
2. ARKLFCQTVEENHS inactive
3. SNPGAMSMCEYGGLFSRWLY -0.516
4. NMFRARGCSDFFLACMNDSA inactive
5. CVFLCDDWFGFCNLNRRFKG 2.82

Field amyloid nucleation score (entry CFLRKTSNASLIHPSRDTNN ) reads inactive

For this sequence ( YTCNSWILDANNLANEPVSK ), measured amyloid nucleation score is inactive

Measured amyloid nucleation score of CLRLGLIMDTKK : inactive

For LYLTSCDIYGAGTIGRWVAV the sequence record lists amyloid nucleation score as inactive

Notebook: HVNSNPHVLASEVK , amyloid nucleation score read as inactive

For record SVSNPRNRT the listed amyloid nucleation score is inactive

GET /value?item= IWSNTYPSIRSLWMSFGVVI &field=amyloid nucleation score returns inactive

The sequence MVLDDYIRKGG showed amyloid nucleation score equal to 0.073
